- protocol: Single ascending dose study of Compound 2 in GT1-HCV infected patients (Part B): safety, tolerability, pharmacokinetic
- Assay type: in vivo, human
- test parameters: human, in vivo, 300 mg, GT1-HCV infected patients; Compound 2 300 mg (first 300 mg line); mean±SD
- Description: Subjects in Part B received a single dose of Compound 2 in the fasting state. Patients were confined to the clinic from Day −1 to Day 6. […] Pharmacokinetic of Compound 1 and nucleoside metabolite 1-7 were measured following the single dose of Compound 2. […]
reported property: half-life (min)
Give the value, in units of min, as a plain number.

The reported half-life of the molecule CNc1nc(N)nc2c1ncn2[C@@H]1O[C@H](CO[P@@](=O)(N[C@@H](C)C(=O)OC(C)C)Oc2ccccc2)[C@@H](O)[C@@]1(C)F was 38.4

====

- protocol: Storage of Compound 1 forms and amorphous salts at 25° C./60% RH for 14 days (HPLC, XRPD, observation)
- test parameters: 25° C./60% RH, 14 days
reported property: Physical/chemical stability and appearance on storage

molecule	result
CNc1nc(N)nc2c1ncn2[C@@H]1O[C@H](CO[P@@](=O)(N[C@@H](C)C(=O)OC(C)C)Oc2ccccc2)[C@@H](O)[C@@]1(C)F [Sample 1-2]	stable
CNc1nc(N)nc2c1ncn2[C@@H]1O[C@H](CO[P@@](=O)(N[C@@H](C)C(=O)OC(C)C)Oc2ccccc2)[C@@H](O)[C@@]1(C)F [Sample 1-1]	stable

====

- protocol: clinical
- Type: in vivo, human
- test parameters: human, in vivo, 100 mg, Tmax
reported property: Tmax (h)
Give the value, in units of h, as a plain number.

The reported Tmax of the molecule C[C@@]1(F)[C@H](O)[C@@H](CO)O[C@H]1n1cnc2c(=O)[nH]c(N)nc21 [Metabolite 1-7] was 6

====

- protocol: Single ascending dose study of Compound 2 in GT1-HCV infected patients (Part B): safety, tolerability, pharmacokinetic
- Assay type: in vivo, human
- test parameters: human, plasma, oral, 300 mg, GT1-HCV infected patients; Compound 2 300 mg (second 300 mg line); mean±SD; read-out: C24h
reported property: concentration at 24 h (ng/mL)
Give the value, in units of ng/mL, as a plain number.

The reported concentration at 24 h of the compound C[C@@]1(F)[C@H](O)[C@@H](CO)O[C@H]1n1cnc2c(=O)[nH]c(N)nc21 [Metabolite 1-7] was 18

====

- protocol: Plasma levels of metabolites following single oral doses of Compound 2, dogs
- Type: in vivo, dog
- test parameters: dog, plasma, po, 100 mg/kg
reported property: AUC(0-t) (ng·h/mL)
Give the value, in units of ng·h/mL, as a plain number.

The reported AUC(0-t) of the compound CNc1nc(N)nc2c1ncn2[C@@H]1O[C@H](CO[P@@](=O)(N[C@@H](C)C(=O)OC(C)C)Oc2ccccc2)[C@@H](O)[C@@]1(C)F was 10200

====

- protocol: Single ascending dose study of Compound 2 in GT1-HCV infected patients (Part B): safety, tolerability, pharmacokinetic
- Format: in vivo, human
- test parameters: human, in vivo, 400 mg, GT1-HCV infected patients; Compound 2 400 mg; mean±SD
Consider the following compounds; for each one, report its AUC.
Give the value, in units of ng·h/mL, as a plain number.

The reported AUC of the compound CNc1nc(N)nc2c1ncn2[C@@H]1O[C@H](CO[P@@](=O)(N[C@@H](C)C(=O)OC(C)C)Oc2ccccc2)[C@@H](O)[C@@]1(C)F was 2410

The reported AUC of the compound C[C@@]1(F)[C@H](O)[C@@H](CO)O[C@H]1n1cnc2c(=O)[nH]c(N)nc21 [Metabolite 1-7] was 2130

====

- protocol: Single ascending dose study of Compound 2 in healthy volunteers (Part A): safety, tolerability, pharmacokinetic
- Type: in vivo, human
- test parameters: both sexes, human, plasma, oral, 200 mg
- Method: Compound 2 was tested in a single ascending dose (SAD) study to measure its safety, tolerability, and pharmacokinetic in healthy subjects (Part A). Part A was a randomized, double-blind, placebo-controlled SAD study. […] Dosing in each cohort was staggered such that 2 subjects (1 active:1 placebo) were evaluated for 48 hours after dosing before the remainder of the cohort was dosed. […] Pharmacokinetic of Compound 1 and nucleoside metabolite 1-7 were measured following the single dose of Compound 2. […]
reported property: Cmax (ng/mL)
Give the value, in units of ng/mL, as a plain number.

The reported Cmax of the compound C[C@@]1(F)[C@H](O)[C@@H](CO)O[C@H]1n1cnc2c(=O)[nH]c(N)nc21 [Metabolite 1-7] was 111

Where these numbers come from: patent US20210087217A1
